B1: TBX5 (parent)
chain: YQNHKITQLKIENNPFAKGFRGSD

variants of: B1; assay: protein stability index of a GFP-peptide fusion (GPS, HEK-293T) (PSI 1-6); higher = more stable; conditions: c terminus: a fixed tail appended;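 further: lentivirally expressed fusions sorted by FACS into six bins by GFP to DsRed ratio, PSI derived from sequencing read proportions per bin multiplied by bin number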
observable: protein stability index
Give bare numbers.

Answered cases to consult:
entry_sequence="YQNEKITQLKIENNPFAKGFRGSD [H4E]" reported_value=3.19
entry_sequence="YQSHKITQLKIENNPFAKGFRGSD [N3S]" reported_value=2.3
entry_sequence="YQNHKITQLKIENNPFAKGCRGSD [F20C]" reported_value=2.85
entry_sequence="YQNHKITQLKIENNPFAKGWRGSD [F20W]" reported_value=2.73
entry_sequence="YQNHKITTLKIENNPFAKGFRGSD [Q8T]" reported_value=2.19

List the reported protein stability index of each variant below.
1. YQNHKITQLKIRNNPFAKGFRGSD [E12R]
2. YQNHKITQLKIENNPFAKGFRQSD [G22Q]
3. YENHKITQLKIENNPFAKGFRGSD [Q2E]
4. YQNLKITQLKIENNPFAKGFRGSD [H4L]
5. YQNHKITQLKIENNPFAKGFHGSD [R21H]
6. YQNHKYTQLKIENNPFAKGFRGSD [I6Y]
7. YQNHKITQLKIENNPMAKGFRGSD [F16M]

Data returned:
[1.98, 2.83, 3.14, 3.06, 2.52, 2.53, 2.98]

Hi there! I need protein stability index for each item below, if you can.
1. YQNHKITQLKIENRPFAKGFRGSD [N14R]
2. YQNHKIVQLKIENNPFAKGFRGSD [T7V]

Data returned:
[2.58, 2.29]

I have 4 variants here; please give me protein stability index for each one.
1. CQNHKITQLKIENNPFAKGFRGSD [Y1C]
2. YQNHKITQLKIEKNPFAKGFRGSD [N13K]
3. YQNHKITQLKIENNPFAKGFSGSD [R21S]
4. YQNHVITQLKIENNPFAKGFRGSD [K5V]

Data returned:
1. 3.19
2. 2.34
3. 2.76
4. 2.44

Go through the items and report each one's protein stability index.
1. YQNHKITQLWIENNPFAKGFRGSD [K10W]
2. YQCHKITQLKIENNPFAKGFRGSD [N3C]
3. YQNHKITQLKIFNNPFAKGFRGSD [E12F]
4. YQNHKITQLKIENNPFAKGRRGSD [F20R]
5. YQNHKITQLKIENNPFAKGFRGRD [S23R]
6. YQNDKITQLKIENNPFAKGFRGSD [H4D]

Data returned:
1. 1.95
2. 1.75
3. 1.7
4. 3.02
5. 2.63
6. 3.52
